Experiment: FBMN analysis of short peptides in small intestine contents and serum after oral DHG
Details: small intestine contents, 240 min after oral DHG, C57 mice; FBMN feature intensity, peptides smaller than 690 Da
Square brackets hold non-standard residues; d marks the D form. Peptide text beside a SMILES is read from it. pGlu = O=C1CC[CH](C(=O)O)N1
MEASURE NAME: Peptide signal (feature intensity) in the small intestine, 240 min

[[record]]
compound = "CCC(C)C(N)C(=O)NC(CCCCN)C(=O)O (stereo not drawn) [Ile-Lys] (H-Ile-Lys-OH; configuration not given here)"
observed = "0.00E+00"

[[record]]
compound = "CC(C)CC(NC(=O)C(N)Cc1ccccc1)C(=O)O (stereo not drawn) [Phe-Leu] (H-Phe-Leu-OH; configuration not given here)"
observed = "0.00E+00"

[[record]]
compound = "CC(C)CC(N)C(=O)NC(C(=O)O)C(C)C (stereo not drawn) [Leu-Val] (H-Leu-Val-OH; configuration not given here)"
observed = "0.00E+00"

[[record]]
compound = "N[C@@H](Cc1c[nH]c2ccccc12)C(=O)N[C@@H](CCC(=O)O)C(=O)O [Trp-Glu] (H-Trp-Glu-OH)"
observed = "1.26E+07"

[[record]]
compound = "CC(C)CC(NC(=O)C(N)C(C)C)C(=O)O (stereo not drawn) [Val-Leu] (H-Val-Leu-OH; configuration not given here)"
observed = "0.00E+00"

[[record]]
compound = "N[C@@H](CC(=O)O)C(=O)N1CCC[C@H]1C(=O)O [Asp-Pro] (H-Asp-Pro-OH)"
observed = "2.09E+07"

[[record]]
compound = "CC(C)C[C@H](N)C(=O)N[C@@H](CCC(=O)O)C(=O)N[C@@H](CCCCN)C(=O)O [Leu-Glu-Lys] (H-Leu-Glu-Lys-OH)"
observed = "9.49E+05"

[[record]]
compound = "CC(C)[C@H](NC(=O)[C@@H](N)Cc1ccc(O)cc1)C(=O)O [Tyr-Val] (H-Tyr-Val-OH)"
observed = "0.00E+00"

[[record]]
compound = "O=C1CNC(=O)C(Cc2ccccc2)N1 (stereo not drawn)"
observed = "4.18E+05"

[[record]]
compound = "CC(C)[C@H](NC(=O)[C@@H](N)CCC(=O)O)C(=O)N[C@@H](Cc1ccccc1)C(=O)O [Glu-Val-Phe] (H-Glu-Val-Phe-OH)"
observed = "1.30E+06"

[[record]]
compound = "CCC(C)C(NC(=O)C1CCC(=O)N1)C(=O)O (stereo not drawn) [PyroGlu-Ile] ([pGlu]-Ile-OH; configuration not given here)"
observed = "0.00E+00"

[[record]]
compound = "C[C@@H](O)[C@H](NC(=O)[C@@H](N)Cc1ccccc1)C(=O)O"
observed = "0.00E+00"

[[record]]
compound = "CC(C)C(NC(=O)C(N)Cc1ccccc1)C(=O)O (stereo not drawn) [Phe-Val] (H-Phe-Val-OH; configuration not given here)"
observed = "0.00E+00"

[[record]]
compound = "N[C@@H](Cc1ccccc1)C(=O)N[C@@H](CCC(=O)O)C(=O)O [Phe-Glu] (H-Phe-Glu-OH)"
observed = "0.00E+00"

[[record]]
compound = "CSCC[C@H](NC(=O)[C@@H](N)C(C)C)C(=O)O [Val-Met] (H-Val-Met-OH)"
observed = "0.00E+00"

